- Tested on: M19-MEL melanoma
- Assay text: NCI tumour cell line growth inhibition, 48 h
Attribute measured: TGI (µM)
Numeric only. Scale: µM

structure_smiles_string=COc1cc2c(cc1OC)/C(=C\c1ccccc1N)C(=O)OC2 attribute_measured=TGI units_text=µM meas_value=39.2
structure_smiles_string=N/C(=N\N=C\c1ccc2c(c1)OCCO2)NO attribute_measured=TGI units_text=µM meas_value=98.6

Could you share which TGI value was measured for `CCN(CC)c1ccc(N=Nc2ccc(-c3nc4ccc[n+](C)c4o3)cc2)cc1` ?
16.3

====

- Test system: CCRF-CEM leukemia
- Assay text: NCI tumour cell line growth inhibition, 48 h
Attribute measured: TGI

For orientation, consider the following solved cases.
compound=CCN1CCN(CC(=O)N2c3cccc4cccc(c34)N(C(=O)CN3CCN(CC)CC3)C2c2cn(-c3ccccc3)nc2-c2cccc([N+](=O)[O-])c2)CC1 meas_value="3.51 µM"
compound="CN1C(=O)C2C(C1=O)C1(O)c3ccccc3C2(N)c2ccccc21 (centres undefined)" meas_value="> 100 µM"
compound=C#CCOc1cccc(Nc2ncnc3cc(NC(=O)CCl)ccc23)c1 meas_value="8.85 µM"
compound=O=C(/C=C/c1ccc(C(F)(F)F)cc1)c1ccc(Nc2nc(NCCO)nc(Nc3ccc(Cl)cc3)n2)cc1 meas_value="8.24 µM"
compound=COc1ccc2c(c1)CCc1c-2n(CCN2CCCCC2)c2ccc(OC)cc12 meas_value="> 100 µM"

Could you share which TGI value was measured for COc1cc(C2CC(c3ccc(Nc4ccnc5cc(Cl)ccc45)cc3)=NN2c2ccc(Cl)cc2)cc(OC)c1OC (centres undefined) ?
> 100 µM

Could you share which TGI value was measured for `Cc1ccc(O)c(NC(=O)c2ccc(CNc3ccnc(C(F)(F)F)c3)cc2)c1` ?
17.7 µM

Could you share which TGI value was measured for `COc1cccc(/C=N/C(/N=C/c2cccc(OC)c2O)c2cccc(OC)c2O)c1O` ?
> 100 µM

Could you share which TGI value was measured for `O=C1C(c2c(O)[nH]c3ccc(Br)cc23)=Nc2ccccc21` ?
> 100 µM

Could you share which TGI value was measured for CC(=O)O[C@H]1C(=O)[C@@]2(C)C(C(OC(=O)c3ccccc3)C3[C@@H](O)C(OC(=O)[C@@H](O)[C@H](NC(=O)c4ccccc4)c4ccc(C(F)(F)F)cc4)C(C)=C1C3(C)C)[C@]1(OC(C)=O)CO[C@@H]1C[C@@H]2O (some centres undefined) ?
> 25 µM

Entry source: PubChem BioAssay (NCI)
